What growth was measured for each of the following?
- System: M14 melanoma
- Test Name: NCI-60 one-dose screen, 48 h (100 = growth as untreated, 0 = no growth, -100 = all killed)
- Stated Conditions: 10 µM unless noted
About 83,000 compounds went through this panel and 20% of them were active in at least one assay; those are over-represented in the sample as a whole.
// return numeric value only (unit: %, not printed)

**Q:** Given the entry CC(=O)O[C@H]1C(=O)[C@@]2(C)C([C@H](OC(=O)c3ccccc3)[C@]3(O)C[C@H](OC(=O)[C@H](O)[C@@H](NC(=O)c4ccccc4)c4ccccc4)C(C)=C1C3(C)C)[C@]1(OC(C)=O)CO[C@@H]1C[C@@H]2O (stereo partly drawn) , report its measured growth.
**A:** 20

**Q:** Given the entry c1coc([C@@H]2C[C@@H]3Cc4ccc5ccccc5c4N2O3)c1 , report its measured growth.
**A:** 108

**Q:** Given the entry COC(=O)[C@]1(CCSC)N[C@H](c2cn(-c3ccccc3)nc2C)[C@@H]2C(=O)N(c3ccccc3)C(=O)[C@@H]21 , report its measured growth.
**A:** 95.9

====

- System: HT29 colon
- Test Name: NCI-60 one-dose screen, 48 h (100 = growth as untreated, 0 = no growth, -100 = all killed)
- Stated Conditions: 10 µM unless noted
Compounds without any hit were thinned out: in the full panel of roughly 83,000, 20% have a hit.
Readout Name: growth (%)
// return numeric value only (unit: %, not printed)

**Q:** Given the entry Nc1c2ccccc2nc2ccccc12 (tested in a mixture with another compound) , report its measured growth.
**A:** 0.0152

**Q:** Given the entry OCCOc1c(Cl)cc(Cl)cc1Cl , report its measured growth.
**A:** 110

**Q:** Given the entry COc1ccc(-c2nc3sccn3c2-c2ccnc(S(C)(=O)=O)n2)cc1 , report its measured growth.
**A:** 89

**Q:** Given the entry O=C(OCCBr)c1ccc(Cl)c([N+](=O)[O-])c1 , report its measured growth.
**A:** 45.4

**Q:** Given the entry COc1ccc(-c2nn(-c3cccc(Cl)c3)cc2C2CC(c3ccccc3)=NN2C(C)=O)cc1 (stereo unspecified) , report its measured growth.
**A:** 62.7

**Q:** Given the entry Nc1ccc(S(=O)(=O)Nc2ncccn2)cc1 , report its measured growth.
**A:** 105

**Q:** Given the entry O=C(NCCCO)c1cc(Cl)ccc1O , report its measured growth.
**A:** 3.68

**Q:** Given the entry N#Cc1ccc(NC(=O)Nc2ccc(Oc3ccc(NC(=O)Nc4ccc(C#N)cc4)cc3)cc2)cc1 , report its measured growth.
**A:** 37.4

**Q:** Given the entry Nc1ccc(C2=NN(c3ccccc3)C(c3ccc(Cl)cc3)C2)cc1 (stereo unspecified) , report its measured growth.
**A:** 19.5

**Q:** Given the entry OC(Cc1cccnc1)c1ccccc1 (stereo unspecified) , report its measured growth.
**A:** 106

**Q:** Given the entry COc1cc(C2C=C(c3ccc(C)cc3)Nc3nc(SC)[nH]c(=O)c32)ccc1Oc1ccnc2cc(Cl)ccc12 (stereo unspecified) , report its measured growth.
**A:** 65.3

====

- Tested on: SN12C renal
- Test Name: NCI-60 one-dose screen, 48 h (100 = growth as untreated, 0 = no growth, -100 = all killed)
- Stated Conditions: 10 µM unless noted
The panel holds about 83,000 compounds, 20% with a hit somewhere; the sample as a whole holds those more often.
Please note: growth exactly at 80% is rule not met. Only values below 80% get rule met.

**Q:** Quick check: does CCCCc1nc(Cl)c(CO)n1Cc1ccc(-c2ccccc2-c2nn[nH]n2)cc1 have growth under 80%?
**A:** rule not met

**Q:** Quick check: does COc1ccccc1[C@H]1c2[nH]c3ccccc3c2C[C@H]2C(=O)N(CCCCCCC(=O)NO)CC(=O)N12 have growth under 80%?
**A:** rule met

**Q:** Quick check: does c1ccc2cc(C[n+]3ccn(CCCCCCCn4cc[n+](Cc5ccc6ccccc6c5)c4)c3)ccc2c1 have growth under 80%?
**A:** rule met

**Q:** Quick check: does COc1cc2cn3c4ccc(O)cc4nc(N)c3c2cc1OC have growth under 80%?
**A:** rule met

**Q:** Quick check: does CC(=O)Oc1ccc(C2OC(c3ccc4ccccc4c3OC(C)=O)=NN2C(C)=O)c(OC(C)=O)c1 (stereo not given) have growth under 80%?
**A:** rule met

**Q:** Quick check: does COC(=O)[C@]1(CCSC)N[C@H](c2cn(-c3ccccc3)nc2C)[C@@H]2C(=O)N(c3ccccc3)C(=O)[C@@H]21 have growth under 80%?
**A:** rule not met

**Q:** Quick check: does COc1ccc(-c2c(N)noc2-c2cc(OC)c3c(c2)OCCO3)cc1 have growth under 80%?
**A:** rule met

**Q:** Quick check: does O=C(/C=C/c1ccccc1Cl)c1ccc(O)cc1 have growth under 80%?
**A:** rule met

**Q:** Quick check: does Cc1nn(-c2ccccc2)c2c1oc(=O)c1cc(Cl)ccc12 have growth under 80%?
**A:** rule not met
